# credit: patent US20230339891A1

target: HIS-AXL 473-End (Homo sapiens (Human), UniProt P30530)
Sequence (P30530 473-894): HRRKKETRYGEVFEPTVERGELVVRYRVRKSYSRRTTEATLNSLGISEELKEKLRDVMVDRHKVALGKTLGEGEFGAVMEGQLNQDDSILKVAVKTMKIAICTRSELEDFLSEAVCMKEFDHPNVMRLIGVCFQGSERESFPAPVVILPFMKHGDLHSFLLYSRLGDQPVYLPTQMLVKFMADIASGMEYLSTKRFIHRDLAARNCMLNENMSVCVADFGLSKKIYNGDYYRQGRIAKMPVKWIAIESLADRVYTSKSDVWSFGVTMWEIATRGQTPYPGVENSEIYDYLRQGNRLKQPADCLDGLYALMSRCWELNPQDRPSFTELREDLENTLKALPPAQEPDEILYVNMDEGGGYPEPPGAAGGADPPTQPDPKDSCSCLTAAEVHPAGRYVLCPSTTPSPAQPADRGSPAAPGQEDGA
Recorded pIC50, one value per entry.
Just so you know, pIC50 here is -log10 of the concentration in molar units; reply with that number alone.

CC(C)n1cc(C(=O)Nc2ccc(Oc3ccnc(Nc4ccc(S(=O)(=O)N(C)C)cn4)c3)c(F)c2)c(=O)n(Cc2ccccc2)c1=O : 6.96

Problem: What value of pIC50 has been recorded for this entry: "CC(C)n1cc(C(=O)Nc2ccc(Oc3ccnc(Nc4ccc(C#N)c(N5CCCC5)n4)c3)c(F)c2)c(=O)n(-c2ccc(F)cc2)c1=O"
Result: 8.52

Problem: What value of pIC50 has been recorded for this entry: "CC(C)n1cc(C(=O)Nc2ccc(Oc3ccnc(Nc4ccc(S(=O)(=O)N(C)C)cn4)c3)cc2)c(=O)n(-c2ccc(F)cc2)c1=O"
Result: 8.54

Problem: What value of pIC50 has been recorded for this entry: "Cc1cccc(-n2c(=O)c(C(=O)Nc3ccc(Oc4ccnc(Nc5ccc(S(=O)(=O)N(C)C)cn5)c4)c(F)c3)cn(C(C)C)c2=O)c1"
Result: 7.85

----------
target: GST-MERTK 578-872 (Homo sapiens (Human), UniProt Q12866)
Sequence (Q12866 578-872): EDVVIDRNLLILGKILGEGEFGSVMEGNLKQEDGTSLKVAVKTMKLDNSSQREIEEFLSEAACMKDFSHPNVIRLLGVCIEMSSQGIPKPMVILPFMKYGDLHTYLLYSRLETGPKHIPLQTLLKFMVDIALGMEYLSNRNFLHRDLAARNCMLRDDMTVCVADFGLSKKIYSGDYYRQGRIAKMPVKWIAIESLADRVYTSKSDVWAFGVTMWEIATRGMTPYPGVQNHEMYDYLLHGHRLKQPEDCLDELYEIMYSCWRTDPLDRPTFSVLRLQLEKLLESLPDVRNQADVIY
Dear colleague, classification is by IC50, with ranges listed here: low range = under 7 nM, mid range = from 7 nM up to 40 nM, high range = 40 nM and over

CC(C)n1cc(C(=O)Nc2ccc(Oc3ccnc(Nc4ccnc(N5CCC(S(C)(=O)=O)CC5)n4)c3)c(F)c2)c(=O)n(-c2ccc(F)cc2)c1=O : low range
CC(C)n1cc(C(=O)Nc2ccc(Oc3ccnc(Nc4cnc(C#N)cn4)c3)c(F)c2)c(=O)n(-c2ccc(F)cc2)c1=O : high range
CC(C)n1cc(C(=O)Nc2ccc(Oc3ccnc(Nc4ccc(S(=O)(=O)NC5CC5)cn4)c3)c(F)c2)c(=O)n(-c2ccc(F)cc2)c1=O : mid range
CC(C)n1cc(C(=O)Nc2ccc(Oc3ccnc(Nc4ccc(C(F)F)cn4)c3)c(F)c2)c(=O)n(-c2ccc(F)cc2)c1=O : high range
C[C@H](CO)n1cc(C(=O)Nc2ccc(Oc3ccnc(Nc4ccc(S(=O)(=O)N(C)C)cn4)c3)c(F)c2)c(=O)n(-c2ccc(F)cc2)c1=O : low range
Cc1cnc(Nc2cc(Oc3ccc(NC(=O)c4cn(C(C)C)c(=O)n(-c5ccc(F)cc5)c4=O)cc3F)ccn2)cc1C : mid range
CC(C)n1cc(C(=O)Nc2ccc(Oc3ccnc(Nc4ccc(S(=O)(=O)N(C)C)cn4)c3)c(F)c2)c(=O)n(Cc2ccccc2)c1=O : high range
CC(C)n1cc(C(=O)Nc2ccc(Oc3ccnc(Nc4ncc(C(F)(F)F)cn4)c3)c(F)c2)c(=O)n(-c2ccc(F)cc2)c1=O : high range
CC(C)n1cc(C(=O)Nc2ccc(Oc3ccnc(Nc4ccnc(N5CCCC5)n4)c3)c(F)c2)c(=O)n(C23CC(C2)C3)c1=O : low range
CC(C)n1cc(C(=O)Nc2ccc(Oc3ccnc(Nc4ccnc(N5CCCC5)n4)c3)c(F)c2)c(=O)n(CC2CCCCC2)c1=O : mid range

Problem: Which class holds "CC(C)n1cc(C(=O)Nc2ccc(Oc3ccnc(Nc4ccc(C(=O)N(C)C)c(N5CCN(S(C)(=O)=O)CC5)n4)c3)c(F)c2)c(=O)n(-c2ccc(F)cc2)c1=O" ?
Result: low range

Problem: Which class holds "CC(C)n1cc(C(=O)Nc2ccc(Oc3ccnc(Nc4ccnc(N5CCCC5)n4)c3)c(F)c2)c(=O)n(C(C)C)c1=O" ?
Result: mid range

Problem: Which class holds "CC(C)n1cc(C(=O)Nc2ccc(Oc3ccnc(Nc4ccc(N5CCCC5=O)cn4)c3)c(F)c2)c(=O)n(-c2ccc(F)cc2)c1=O" ?
Result: low range
